- System: Escherichia coli TOP10
- TEST_SUMMARY: shrunken log2 fold change of peptide-encoding DNA abundance (4.5 h post-induction vs induction); higher = less antimicrobial activity (less host growth inhibition)
- CONDITION_DESCRIPTION: time post-induction: 4.5 h; library: site-saturation at positions 5, 18, 19, 20
Decision: shrunken log2 fold change >= -0.02 yields satisfied, all other cases yield not satisfied.

Identify whether the reported shrunken log2 fold change of the following sequence is -0.02 or greater: "RRIRLRPPRLPRPRPRPWRRPRP"
satisfied

Identify whether the reported shrunken log2 fold change of the following sequence is -0.02 or greater: "RRIRCRPPRLPRPRPRPMCIPRP"
not satisfied

Identify whether the reported shrunken log2 fold change of the following sequence is -0.02 or greater: "RRIRIRPPRLPRPRPRPSHMPRP"
not satisfied

Identify whether the reported shrunken log2 fold change of the following sequence is -0.02 or greater: "RRIRYRPPRLPRPRPRPYCKPRP"
not satisfied

Identify whether the reported shrunken log2 fold change of the following sequence is -0.02 or greater: "RRIRKRPPRLPRPRPRPREQPRP"
satisfied

Identify whether the reported shrunken log2 fold change of the following sequence is -0.02 or greater: "RRIRRRPPRLPRPRPRPYYKPRP"
not satisfied

Identify whether the reported shrunken log2 fold change of the following sequence is -0.02 or greater: "RRIRHRPPRLPRPRPRPCCWPRP"
satisfied

Identify whether the reported shrunken log2 fold change of the following sequence is -0.02 or greater: "RRIRQRPPRLPRPRPRPLGWPRP"
satisfied

Identify whether the reported shrunken log2 fold change of the following sequence is -0.02 or greater: "RRIRNRPPRLPRPRPRPNGTPRP"
not satisfied

Identify whether the reported shrunken log2 fold change of the following sequence is -0.02 or greater: "RRIRCRPPRLPRPRPRPVDVPRP"
not satisfied

Identify whether the reported shrunken log2 fold change of the following sequence is -0.02 or greater: "RRIRLRPPRLPRPRPRPIMFPRP"
not satisfied

Identify whether the reported shrunken log2 fold change of the following sequence is -0.02 or greater: "RRIRPRPPRLPRPRPRPFAWPRP"
satisfied

Identify whether the reported shrunken log2 fold change of the following sequence is -0.02 or greater: "RRIRTRPPRLPRPRPRPHCGPRP"
not satisfied

Identify whether the reported shrunken log2 fold change of the following sequence is -0.02 or greater: "RRIRVRPPRLPRPRPRPKTVPRP"
satisfied

Identify whether the reported shrunken log2 fold change of the following sequence is -0.02 or greater: "RRIRNRPPRLPRPRPRPCHNPRP"
not satisfied

Identify whether the reported shrunken log2 fold change of the following sequence is -0.02 or greater: "RRIRWRPPRLPRPRPRPEYIPRP"
not satisfied

Identify whether the reported shrunken log2 fold change of the following sequence is -0.02 or greater: "RRIRDRPPRLPRPRPRPMDQPRP"
satisfied

Identify whether the reported shrunken log2 fold change of the following sequence is -0.02 or greater: "RRIRKRPPRLPRPRPRPMMPPRP"
satisfied

Identify whether the reported shrunken log2 fold change of the following sequence is -0.02 or greater: "RRIRHRPPRLPRPRPRPFTHPRP"
not satisfied

Identify whether the reported shrunken log2 fold change of the following sequence is -0.02 or greater: "RRIRGRPPRLPRPRPRPSQCPRP"
not satisfied

Identify whether the reported shrunken log2 fold change of the following sequence is -0.02 or greater: "RRIRDRPPRLPRPRPRPYGIPRP"
satisfied

Identify whether the reported shrunken log2 fold change of the following sequence is -0.02 or greater: "RRIRIRPPRLPRPRPRPLCPPRP"
not satisfied

Identify whether the reported shrunken log2 fold change of the following sequence is -0.02 or greater: "RRIRVRPPRLPRPRPRPRGMPRP"
satisfied

* * *

- System: Escherichia coli TOP10
- TEST_SUMMARY: shrunken log2 fold change of peptide-encoding DNA abundance (4.5 h post-induction vs induction); higher = less antimicrobial activity (less host growth inhibition)
- CONDITION_DESCRIPTION: time post-induction: 4.5 h; library: site-saturation at positions 5, 18, 19, 20
Category key, based on recorded shrunken log2 fold change: Low = under -0.1, Mid = from -0.1 up to 0.1, High = 0.1 and over

For orientation, consider the following solved cases.
CHAIN_SEQUENCE: RRIRQRPPRLPRPRPRPVLEPRP
ASSIGNED_CATEGORY: High
//
CHAIN_SEQUENCE: RRIRGRPPRLPRPRPRPCTPPRP
ASSIGNED_CATEGORY: High
//
CHAIN_SEQUENCE: RRIRPRPPRLPRPRPRPSNCPRP
ASSIGNED_CATEGORY: Low
//
CHAIN_SEQUENCE: RRIRNRPPRLPRPRPRPRPEPRP
ASSIGNED_CATEGORY: High
//
CHAIN_SEQUENCE: RRIRNRPPRLPRPRPRPMTAPRP
ASSIGNED_CATEGORY: Low
//
CHAIN_SEQUENCE: RRIRGRPPRLPRPRPRPRELPRP
ASSIGNED_CATEGORY: High
//
CHAIN_SEQUENCE: RRIRNRPPRLPRPRPRPWRAPRP
ASSIGNED_CATEGORY: Mid
//
CHAIN_SEQUENCE: RRIRRRPPRLPRPRPRPGHNPRP
ASSIGNED_CATEGORY: Mid

Band for the recorded shrunken log2 fold change of "RRIRLRPPRLPRPRPRPTSFPRP" ?
Mid

Band for the recorded shrunken log2 fold change of "RRIRNRPPRLPRPRPRPDTTPRP" ?
Low

Band for the recorded shrunken log2 fold change of "RRIRSRPPRLPRPRPRPRYRPRP" ?
Low

Band for the recorded shrunken log2 fold change of "RRIRNRPPRLPRPRPRPVVSPRP" ?
Low

Band for the recorded shrunken log2 fold change of "RRIRTRPPRLPRPRPRPHWEPRP" ?
Low

Band for the recorded shrunken log2 fold change of "RRIRGRPPRLPRPRPRPNFKPRP" ?
High

Band for the recorded shrunken log2 fold change of "RRIRNRPPRLPRPRPRPYCDPRP" ?
Mid

Band for the recorded shrunken log2 fold change of "RRIRFRPPRLPRPRPRPFMLPRP" ?
Low

Band for the recorded shrunken log2 fold change of "RRIRERPPRLPRPRPRPEFGPRP" ?
Low

Band for the recorded shrunken log2 fold change of "RRIRERPPRLPRPRPRPNYWPRP" ?
Low

Band for the recorded shrunken log2 fold change of "RRIRARPPRLPRPRPRPMVHPRP" ?
Mid

Band for the recorded shrunken log2 fold change of "RRIRDRPPRLPRPRPRPRFTPRP" ?
High

Band for the recorded shrunken log2 fold change of "RRIRIRPPRLPRPRPRPAFGPRP" ?
High

Band for the recorded shrunken log2 fold change of "RRIRGRPPRLPRPRPRPVCRPRP" ?
High

* * *

- System: Escherichia coli TOP10
- TEST_SUMMARY: shrunken log2 fold change of peptide-encoding DNA abundance (4.5 h post-induction vs induction); higher = less antimicrobial activity (less host growth inhibition)
- CONDITION_DESCRIPTION: time post-induction: 4.5 h; library: site-saturation at positions 5, 18, 19, 20
Recorded shrunken log2 fold change values for a group of sequences are listed next.
Please respond with just the number, no unit label.

These recorded examples may help you get a feel for the data.
CHAIN_SEQUENCE: RRIRVRPPRLPRPRPRPREMPRP
shrunken log2 fold change: 0.0631
//
CHAIN_SEQUENCE: RRIRTRPPRLPRPRPRPTMIPRP
shrunken log2 fold change: -0.413
//
CHAIN_SEQUENCE: RRIRIRPPRLPRPRPRPLMQPRP
shrunken log2 fold change: -0.564
//
CHAIN_SEQUENCE: RRIRNRPPRLPRPRPRPGSGPRP
shrunken log2 fold change: 0.179

State recorded shrunken log2 fold change with Escherichia coli TOP10, entry "RRIRPRPPRLPRPRPRPMWTPRP" , no comment.
0.0739

State recorded shrunken log2 fold change with Escherichia coli TOP10, entry "RRIRMRPPRLPRPRPRPDGNPRP" , no comment.
0.0626

State recorded shrunken log2 fold change with Escherichia coli TOP10, entry "RRIRHRPPRLPRPRPRPGMGPRP" , no comment.
0.0516

* * *

- Tested on: Escherichia coli TOP10;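 also: peptides expressed intracellularly from a pBAD plasmid library in pooled LB shake-flask culture, induced with 0.3% L-arabinose, DNA abundance read by NGS, three biological replicates, DESeq2 with apeglm shrinkage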
- TEST_SUMMARY: shrunken log2 fold change of peptide-encoding DNA abundance (4.5 h post-induction vs induction); higher = less antimicrobial activity (less host growth inhibition)
- CONDITION_DESCRIPTION: time post-induction: 4.5 h; library: site-saturation at positions 5, 18, 19, 20
OBSERVED_PROPERTY: shrunken log2 fold change
Please respond with just the number, no unit label.

These recorded examples may help you get a feel for the data.
CHAIN_SEQUENCE: RRIRARPPRLPRPRPRPDNCPRP
REPORTED_VALUE: -0.153

CHAIN_SEQUENCE: RRIRFRPPRLPRPRPRPQPEPRP
REPORTED_VALUE: -0.119

CHAIN_SEQUENCE: RRIRQRPPRLPRPRPRPKMWPRP
REPORTED_VALUE: 1

CHAIN_SEQUENCE: RRIRSRPPRLPRPRPRPWFEPRP
REPORTED_VALUE: -0.0139

CHAIN_SEQUENCE: RRIRVRPPRLPRPRPRPHADPRP
REPORTED_VALUE: 0.00219

CHAIN_SEQUENCE: RRIRRRPPRLPRPRPRPCVCPRP
REPORTED_VALUE: 0.082

CHAIN_SEQUENCE: RRIRTRPPRLPRPRPRPATLPRP
REPORTED_VALUE: -0.197

CHAIN_SEQUENCE: RRIRYRPPRLPRPRPRPYSAPRP
REPORTED_VALUE: -1.51

Fill in reported shrunken log2 fold change for this entry: "RRIRARPPRLPRPRPRPCYLPRP"
-0.262

Fill in reported shrunken log2 fold change for this entry: "RRIRWRPPRLPRPRPRPFGTPRP"
0.00184

Fill in reported shrunken log2 fold change for this entry: "RRIRTRPPRLPRPRPRPQEIPRP"
-0.187

Fill in reported shrunken log2 fold change for this entry: "RRIRDRPPRLPRPRPRPWVVPRP"
0.0765

Fill in reported shrunken log2 fold change for this entry: "RRIRFRPPRLPRPRPRPPADPRP"
0.789

Fill in reported shrunken log2 fold change for this entry: "RRIRGRPPRLPRPRPRPPWLPRP"
0.849

Fill in reported shrunken log2 fold change for this entry: "RRIRFRPPRLPRPRPRPRYKPRP"
-0.311

Fill in reported shrunken log2 fold change for this entry: "RRIRNRPPRLPRPRPRPTCYPRP"
-0.226

Fill in reported shrunken log2 fold change for this entry: "RRIRWRPPRLPRPRPRPLCWPRP"
0.513

Fill in reported shrunken log2 fold change for this entry: "RRIRHRPPRLPRPRPRPYRYPRP"
-0.177

Fill in reported shrunken log2 fold change for this entry: "RRIRQRPPRLPRPRPRPPMDPRP"
-0.0321

Fill in reported shrunken log2 fold change for this entry: "RRIRRRPPRLPRPRPRPLHDPRP"
0.359
